Origin of values: patent US7960393B2

Entries annotated with measured melting point

| molecule | measuredAttribute | measValue |
| --- | --- | --- |
| CN(CC(=O)NC1CCCC1)c1nc(Cc2ccc(NC(=O)c3ccc4ccccc4n3)cc2)nc(Cl)c1CC(=O)O [Example 1-16] | melting point | 137 °C |

So what's the measured melting point for this one? CN(C)c1nc(Cc2ccc(NC(=O)/C=C/c3ccccc3)cc2)ncc1CC(=O)O [Example 2-10] 135 to 140 °C

So what does the record say about melting point for COCC(=O)Nc1ccc(Cc2ncc(CC(=O)O)c(N3CCCC3)n2)cc1 [Example 2-34] ? 102 to 105 °C

Query: melting point; subject: CN(C)c1nc(Cc2ccc(NC(=O)c3ccc4ccccc4c3)cc2)nc(Cl)c1CC(N)=O [Example 11] 189 to 190 °C

For the molecule shown here, CN(C)c1nc(Cc2ccc(NC(=O)c3ccc(F)cc3)cc2)nc(N2CCOCC2)c1CC(=O)O [Example 7-30] , give the reported melting point. 197 to 198 °C

Given the entry CN(C)c1nc(Cc2ccc(NC(=O)C3CCC(C(C)(C)C)CC3)cc2)nc(Cl)c1CC(=O)O (stereo not shown) [Example 1-51] , report its measured melting point. 104 °C

Which value of melting point has been reported for CCc1nc(Cc2ccc(NC(=O)OCc3ccccc3)cc2)nc(N(C)C)c1CC(=O)O [Example 9-6] in the records? 120 to 123 °C

Reported melting point for CC(c1ccc(NC(=O)/C=C/c2ccccc2)cc1)c1ncc(CC(=O)O)c(N(C)C)n1 (stereo not shown) [Example 2-23] : what is it? 150 to 153 °C

###

# testedSystem: human CRTH2 (Homo sapiens)
# Construct: expressed in transfected cells; host or cells: L1.2 cells, pEAK expression vector, puromycin-selected
# Sequence (Q9Y5Y4 whole entry): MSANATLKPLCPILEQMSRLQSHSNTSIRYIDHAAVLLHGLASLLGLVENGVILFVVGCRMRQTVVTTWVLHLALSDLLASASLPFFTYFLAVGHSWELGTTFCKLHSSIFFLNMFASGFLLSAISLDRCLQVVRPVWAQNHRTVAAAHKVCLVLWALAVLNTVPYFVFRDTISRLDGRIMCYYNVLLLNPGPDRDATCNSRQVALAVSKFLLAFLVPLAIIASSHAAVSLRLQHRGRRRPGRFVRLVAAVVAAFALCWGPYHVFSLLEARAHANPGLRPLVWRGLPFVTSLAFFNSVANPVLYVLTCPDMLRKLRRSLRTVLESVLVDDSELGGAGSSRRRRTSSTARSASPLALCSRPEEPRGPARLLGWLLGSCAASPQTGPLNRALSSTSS
# measurementProtocol: Measurement of Ca2+ mobilization in the human CRTH2-transfected L1.2 cell line (Assay 1)
# Assay type: cell-based
# conditionContext: PGD2-induced Ca2+ mobilization in CRTH2-transfected L1.2 cells; compounds as yielded by solid phase synthesis, purity about 40 to 90%; read-out: Activity class
# IC50 per entry

Example entries begin here.
| compound | IC50 |
| --- | --- |
| CN(CC(=O)NC1CCCC1)c1nc(Cc2ccc(NC(=O)c3ccco3)cc2)nc(Cl)c1CC(=O)O [Example 1-11] | 100 to 500 nM |
| CCCCCCCNc1ccc(Cc2nc(Cl)c(CC(=O)O)c(N(C)CC(=O)NC3CCCC3)n2)cc1 [Example 5-5] | > 500 nM |
| CN(C)c1nc(Cc2ccc(NC(=O)C3CCC(C(C)(C)C)CC3)cc2)nc(Cl)c1CC(=O)O (centres unmarked) [Example 1-51] | < 10 nM |

What IC50 value was documented for this compound, O=C(O)Cc1c(Cl)nc(Cc2ccc(NC(=O)/C=C/c3ccccc3)cc2)nc1N1CCCC1 [Example 1-60] ? < 10 nM

Any idea what its IC50 is? The compound is CN(C)c1nc(Cc2ccc(NC(=O)c3ccc4ccccc4c3)cc2)nc(N2CCCC2)c1CC(=O)O [Example 7-4] 10 to 100 nM

###

measuredAttribute: melting point

// below: answered compounds
| compound | measuredAttribute | measValue |
| --- | --- | --- |
| CN(CC(=O)NC1CCCC1)c1nc(Cc2ccc(NC(=O)c3ccccc3)cc2)nc(Cl)c1CC(=O)O | melting point | > 140 °C |
| CC(C)c1nc(Cc2ccc(NC(=O)c3ccc(C(F)(F)F)cc3)cc2)nc(N(C)C)c1CC(=O)O | melting point | 145 to 148 °C |
| CC(c1ccc(NC(=O)c2ccc(F)cc2)cc1)c1ncc(CC(=O)O)c(N(C)C)n1 (centres unmarked) | melting point | 114 to 117 °C |
| CN(CC(=O)NC1CCCC1)c1nc(Cc2ccc(NC(=O)Cc3cccc(Oc4ccccc4)c3)cc2)nc(Cl)c1CC(=O)O | melting point | > 118 °C |
| CN(C)c1nc(Cc2ccc(NC(=O)c3ccc(Oc4ccccc4)cc3)cc2)nc(N2CCCC2)c1CC(=O)O | melting point | 137 to 140 °C |

Tell me the measured melting point of `CN(C)c1nc(Cc2ccc(NC(=O)/C=C/c3ccccc3)cc2)nc(N2CCOCC2)c1CC(=O)O` , please. 129 to 132 °C

What melting point value was documented for this compound, `CN(CC(=O)NC1CCCC1)c1nc(Cc2ccc(NC(=O)CC3CCCCC3)cc2)nc(Cl)c1CC(=O)O` ? > 149 °C

I'd like to know its melting point. The compound in question is `Cc1ccc(C(=O)Nc2ccc(Cc3nc(Cl)c(CC(=O)O)c(N(C)CC(=O)NC4CCCC4)n3)cc2)cc1` 125 °C

Looking for the measured melting point of `O=C(O)Cc1c(Cl)nc(Cc2ccc(NC(=O)/C=C/c3ccccc3)cc2)nc1N1CCCC1` , can you help? 120 °C

Please look up its melting point: `CN(C)c1nc(Cc2ccc(NC(=O)OCc3ccccc3)cc2)nc(Cl)c1CC(=O)O` 88 to 91 °C

I would be grateful if you could share the reported melting point for `CN(CC(=O)NC1CCCC1)c1nc(Cc2ccc(NCc3ccccc3)cc2)nc(Cl)c1CC(=O)O` . > 70 °C

Name the recorded melting point for `O=C(O)Cc1cnc(Cc2ccc(NC(=O)c3ccc(Cl)cc3)cc2)nc1N1CCCC1` . 151 to 153 °C

What value of measured melting point is listed for `CC(=O)Nc1ccc(C(=O)Nc2ccc(Cc3nc(Cl)c(CC(=O)O)c(N4CCCC4)n3)cc2)cc1` ? 189 °C

###

# testedSystem: human CRTH2 (Homo sapiens)
# Construct: expressed in transfected cells; host or cells: L1.2 cells, pEAK expression vector, puromycin-selected
# measurementProtocol: Measurement of Ca2+ mobilization in the human CRTH2-transfected L1.2 cell line (Assay 1)
# Assay type: cell-based
# conditionContext: PGD2-induced Ca2+ mobilization in CRTH2-transfected L1.2 cells; compounds as yielded by solid phase synthesis, purity about 40 to 90%; read-out: Activity class
pIC50: −log10 of the molar value.
Reported pIC50 is given for each of the following compounds.

For orientation, consider the following solved cases.
| compound | pIC50 |
| --- | --- |
| COc1ccc(C(=O)Nc2ccc(Cc3ncc(CC(=O)O)c(N(C)C)n3)cc2)cc1 [Example 2-7] | > 8.00 |
| CN(C)c1nc(Cc2ccc(NC(=O)OCc3ccccc3)cc2)nc(Cl)c1CC(=O)O [Example 9-3] | > 8.00 |
| CN(CC(=O)NC1CCCC1)c1nc(Cc2ccc(NS(=O)(=O)c3ccc4ccccc4c3)cc2)nc(Cl)c1CC(=O)O [Example 1-23] | < 6.30 |
| CN(C)c1nc(Cc2ccc(NC(=O)c3ccc(F)cc3)cc2)nc(N2CCOCC2)c1CC(=O)O [Example 7-30] | 6.30 to 7.00 |
| CN(C)c1nc(Cc2ccc(NC(=O)c3ccc4ccccc4n3)cc2)nc(N2CCCC2)c1CC(=O)O [Example 7-9] | 6.30 to 7.00 |
| CN(C)c1nc(Cc2ccc(NC(=O)COc3ccccc3)cc2)nc(N2CCOCC2)c1CC(=O)O [Example 7-26] | < 6.30 |
| CN(CC(=O)NC1CCCC1)c1nc(Cc2ccc(NC/C=C/c3ccccc3)cc2)nc(Cl)c1CC(=O)O [Example 5-4] | 6.30 to 7.00 |
| CCc1nc(Cc2ccc(NC(=O)c3ccc(C(F)(F)F)cc3)cc2)nc(N(C)C)c1CC(=O)O [Example 8-9] | > 8.00 |

Please find the next compound below.
Consider the compound CN(CC(=O)NC1CCCC1)c1nc(Cc2ccc(NC(=O)c3ccc4ccccc4n3)cc2)nc(Cl)c1CC(=O)O [Example 1-16] and give its measured pIC50. > 8.00

###

# testedSystem: human CRTH2 (Homo sapiens)
# Construct: expressed in transfected cells; host or cells: L1.2 cells, pEAK expression vector, puromycin-selected
# measurementProtocol: Measurement of Ca2+ mobilization in the human CRTH2-transfected L1.2 cell line (Assay 1)
# Type: cell-based
# conditionContext: PGD2-induced Ca2+ mobilization in CRTH2-transfected L1.2 cells; compounds as yielded by solid phase synthesis, purity about 40 to 90%; read-out: Activity class
Each entry below carries its recorded IC50.

| compound | IC50 |
| --- | --- |
| CN(CC(=O)NC1CCCC1)c1nc(Cc2ccc(NCC3CCCCC3)cc2)nc(Cl)c1CC(=O)O | > 500 nM |

Which IC50 value is on record for `O=C(O)Cc1c(Cl)nc(Cc2ccc(NC(=O)c3ccc4ccccc4c3)cc2)nc1N1CCCCC1` ? < 10 nM

What measured IC50 goes with `O=C(O)Cc1cnc(Cc2ccc(NC(=O)c3ccc4ccccc4n3)cc2)nc1N1CCCC1` ? < 10 nM

Consider the compound shown here: `CN(CC(=O)NC1CCCC1)c1nc(Cc2ccc(NC(=O)c3cc4ccccc4o3)cc2)nc(Cl)c1CC(=O)O` What is its recorded IC50? < 10 nM
